Protocol Text: inhibitors of HIV fusion peptide binding, primary screen, biochemical, uHTS, fluorescence dequenching (AID 1986)
Experimental Setup: cell-free peptide binding, 30 min, at 20 µM
The campaign covered roughly 290,000 compounds. About 890 (0.31%) were called active. Rule as the data show it: active = inhibition mostly above about 52% (no sharp cut-off); inactive = mostly below about 76%. The entries come from a sample that favours actives as a whole.
Choose one outcome from this list and give only that: active, inactive

Solved entries (count: 6):
{"Compound": "O=c1[nH]c(=O)n(Cc2ccccc2)c(O)c1/C=C1\\C=Nc2ccccc21", "Class Assignment": "active"}
{"Compound": "CCOC(=O)c1cc(CC)sc1/N=C/C1C(=O)NC(=S)NC1=O", "Class Assignment": "inactive"}
{"Compound": "Cn1c(O)c(/C=C/C=Nc2ccccc2)c(=O)n(C)c1=S", "Class Assignment": "active"}
{"Compound": "CCCCn1c(O)c(/C=C2\\C=Nc3ccccc32)c(=O)[nH]c1=O", "Class Assignment": "active"}
{"Compound": "COc1ccc(NC(=O)CN2C3CCC2CC(O)(c2cccnc2)C3)cc1OC (centres undefined)", "Class Assignment": "inactive"}
{"Compound": "CCOC(=O)C1CCN(C(C)C(=O)c2c(C)[nH]c3cc(C)ccc23)CC1 (centres undefined)", "Class Assignment": "inactive"}

I'd appreciate the recorded outcome for O=C1NC(=O)N(c2ccccc2)C(=O)/C1=C\c1ccccc1[N+](=O)[O-] from this test.
inactive

Input C=CCn1c(O)c(C(C)=NCCCn2ccnc2)c(=O)[nH]c1=O
inactive

Input CC1=C2C3OC(=O)C(C)C3CC[C@@]2(C)C=CC1=O (some centres undefined)
inactive

Input O=c1[nH]c(=O)n(-c2ccccc2F)c(O)c1/C=C1\C=Nc2ccccc21
inactive

Input CCOC(=O)c1nc2ccccc2c(=O)n1-c1ccc(C)cc1
inactive

Input Cn1c(O)c(C=Nc2ccccc2)c(=O)n(C)c1=O
inactive

Input Cc1cccc(-n2c(O)c(/C=C/C=Nc3ccccc3)c(=O)[nH]c2=O)c1
inactive

Input O=C(O)c1ccc(N=Cc2c(O)[nH]c(=O)[nH]c2=O)cc1
inactive

----------
Protocol Text: inhibitors of HIV fusion peptide binding, primary screen, biochemical, uHTS, fluorescence dequenching (AID 1986)
Experimental Setup: cell-free peptide binding, 30 min, at 20 µM, active compounds read high
Among all 290,000 compounds or so, about 890 (0.31%) were called active. Only a selection was taken, and actives are over-represented in it overall.
Catalogue of inhibition readings, one per entry.
Kindly answer with a numeric value in %, unit omitted.

For the molecule shown here, Cc1cc(Cl)ccc1C(=O)C1CCCN(Cc2ccon2)C1 (stereo not given) , give the reported inhibition.
-1.3

Input Cc1cccc(N2C(=O)NC(=O)/C(=C\c3ccc4c(c3)CCCN4Cc3ccccc3)C2=O)c1
48.8

Input O=C(C(Cc1ccccc1)NS(=O)(=O)c1ccc(F)cc1)N1CCC2(CC1)OCCO2 (stereo not given)
3.1

Input CCOP(=O)(OCC)C(O)c1ccc(Br)cc1 (stereo not given)
-1

Input CC(Cc1ccccc1)[n+]1cc(/N=C(\[O-])Nc2ccccc2)on1 (stereo not given)
-1.8

----------
Catalogue of inhibition readings, one per entry.
Protocol Text: inhibitors of HIV fusion peptide binding, primary screen, biochemical, uHTS, fluorescence dequenching (AID 1986)
Experimental Setup: cell-free peptide binding, 30 min, at 20 µM, active compounds read high
Hit rate of the full screen: of about 290,000 compounds, about 890 (0.31%) were called active. This excerpt belongs to a sample that is enriched for actives.

{"Compound": "CCN(CC)c1ccc(/C=C2\\C(=O)NC(=S)N(C)C2=O)o1", "inhibition": "149% (inactive)"}
{"Compound": "Cc1ccccc1N1C(=O)NC(=O)/C(=C\\c2cc(Br)c(N3CCOCC3)o2)C1=O", "inhibition": "147% (inactive)"}
{"Compound": "CCN1CCN(c2ccc(N)cc2C)CC1", "inhibition": "-1.1% (inactive)"}
{"Compound": "O/N=C1/C(=C\\c2ccccc2)N2CCC1CC2", "inhibition": "9.6% (inactive)"}
{"Compound": "CN1CCN(c2ccc(/C=C3\\C(=O)NC(=S)N(c4cccc(Br)c4)C3=O)o2)CC1", "inhibition": "53.7% (active)"}
{"Compound": "Cc1nc2ccc(Cl)cc2c(=O)n1-c1ccc([N+](=O)[O-])cc1", "inhibition": "-1.1% (inactive)"}
{"Compound": "CN1C(=O)/C(=C\\c2ccc(N3CCCCC3)o2)C(=O)NC1=S", "inhibition": "151% (inactive)"}
{"Compound": "CCOC(=O)c1sc(/N=C/c2c(O)n(-c3ccccc3)c(=O)[nH]c2=O)c(C#N)c1C", "inhibition": "-1.7% (inactive)"}
{"Compound": "Cc1cc(N2CCCC2)ccc1C=C(C#N)C#N", "inhibition": "80.3% (active)"}
{"Compound": "c1ccc(-c2[nH]c[n+](CC3CO3)c2-c2ccccc2)cc1 (stereo unspecified)", "inhibition": "12.3% (inactive)"}

For the compound shown here, O=C(COc1ccccc1)c1cn(Cc2ccccc2)c2ccccc12 , give the reported inhibition.
80.8% (active)

Input O=C1N(c2cccc(Cl)c2)C(c2cccnc2)N2CCCN12 (stereo unspecified)
-0.5% (inactive)

Input CCC(=O)N1CC(=O)Nc2ccc(Cl)cc2C1c1ccc(F)cc1 (stereo unspecified)
-1.6% (inactive)

Input CN1C(=O)/C(=C/c2ccc(N3CCCCCC3)o2)C(=O)NC1=S
103% (active)

Input CC(C)n1c(=O)c(C=Nc2ccc(Br)cc2)c(O)n(Cc2ccco2)c1=O
66.2% (active)

Input CCN1C(=O)C(=Cc2ccc(N3CCOCC3)o2)C(=O)N(CC)C1=S
136% (inactive)

Input CC12CN3CCN(CC(C3)C1O)C2 (stereo unspecified)
-2.7% (inactive)
